viability at 48 h, 3 µM values, listed per item
assay: Cell viability measurement (MTS), Calu-3 cells; assay type: cell-based; details: human, 3 μM

# structure.smiles.string, viability at 48 h, 3 µM
measured = [
    ("Cc1noc(-c2ccc3nc(-c4cccc(Nc5ccc(-c6cccnn6)cc5)c4)[nH]c3c2)n1", "> 80%"),
    ("c1cc(Nc2ncc(-c3cccnn3)cn2)cc(-c2nc3cnccc3[nH]2)c1", "> 80%"),
    ("c1cnc(-c2ccc(Nc3cccc(-c4nc5ccccc5[nH]4)c3)cc2)nc1", "50 to 80%"),
    ("FC(F)(F)c1ccc2nc(-c3cccc(Nc4ncc(-c5ccccn5)cn4)c3)[nH]c2c1", "> 80%"),
]

-- ask Requested read-out: viability at 48 h, 3 µM. Entry: "c1cc(Nc2ncc(-c3cccnn3)cn2)cc(-c2nc3ccccc3[nH]2)c1"
-- reply 50 to 80%

-- ask Fill in the blank: the reported viability at 48 h, 3 µM of "Fc1ccc2nc(-c3cccc(Nc4ncc(-c5cccnn5)cn4)c3)[nH]c2c1" is ____.
-- reply > 80%

Where these numbers come from: patent US20260364068A1
